Tested on: SR leukemia
Experiment: NCI tumour cell line growth inhibition, 48 h
PROPERTY_MEASURED: GI50

Some compounds with known GI50 results, for comparison:
COc1cc(C2CC(c3ccc(C)cc3)=NN2C(C)=O)ccc1Oc1ccnc2cc(Cl)ccc12 (stereo not given) ... > 100000 nM
Cc1c(Br)cccc1NC(=O)c1sc2nc3c(cc2c1N)CN(Cc1ccccc1)CC3 ... 107 nM
COc1ccc(-c2ccc(/C=N/n3cnn(CN4CCN(C)CC4)c3=S)o2)c([N+](=O)[O-])c1 ... 31500 nM
Nc1ccc(Cl)cc1.Nc1ccc(Cl)cc1.Nc1ccc(Cl)cc1.O=C([O-])C(=O)[O-].O=C([O-])C(=O)[O-].[H+].[Ru+5] ... 23 nM

Identify measured GI50 corresponding to CC([C@H]1CCC2C3CCC4C(=O)C(NC=O)=CC[C@]4(C)C3CC[C@@]21C)N(C)C (stereo not given in full)
1030 nM

---

Tested on: MALME-3M melanoma
Experiment: NCI tumour cell line growth inhibition, 48 h
Tag: yes if measured TGI is not below 30 µM, no if it is.

NC(=O)c1ncn(C2CCC(CP(=O)(O)O)C2)c1N (stereo unspecified) ... yes
CC(C)=CCNc1ncnc2c1ncn2C1OC(COP(=O)(O)O)C(O)C1O (stereo unspecified) ... yes
Cn1c(=O)c(C2c3ccccc3Oc3c2c(=O)n(C)c2ccccc32)c(O)c2ccccc21 (stereo unspecified) ... yes

For this molecule, is measured TGI 30 µM or higher? Clc1cc(Cl)c2n[se]nc2c1
yes

For this molecule, is measured TGI 30 µM or higher? COc1ccc(/C(C#N)=C/c2nc3c(N4CCOCC4)nc(Cl)nc3n2C)cc1OC
no

---

Property: GI50; scope: individual compounds
Tested on: HOP-62 NSCLC
Assay: NCI tumour cell line growth inhibition, 48 h

Some compounds with known GI50 results, for comparison:
COc1ccc(C2CC(c3cccc(Nc4ccnc5cc(Cl)ccc45)c3)=NN2c2ccccc2)cc1 (centres undefined) ... 0.949 µM
O=C(NCCc1ccccc1)C(c1csc2ccccc12)N(C(=O)CCl)c1ccc(-c2cnco2)cc1 (centres undefined) ... 0.347 µM
COc1ccc(-n2cc(-c3ccc(Cl)cc3)[nH]c2=S)cc1Cl ... 32.4 µM

Using HOP-62 NSCLC as the test system, report measured GI50 of CC(=N\O)/C(C)=N/O.CC(=N\O)/C(C)=N/O.[Pd] .
5.62 µM

---

Test system: PC-3 prostate
Assay: NCI tumour cell line growth inhibition, 48 h; in the data active means GI50 below about 0.43 µM; inactive means the rest
Parameter call: string, one of active, inactive

# example entries with known answers
CC([C@H]1CCC2C3CCC4C(=O)C(NC=O)=CC[C@]4(C)C3CC[C@@]21C)N(C)C (some centres not stated) ... inactive
COc1ccc(-n2cc(-c3ccc(Cl)cc3)[nH]c2=S)cc1Cl ... inactive
COc1ccc(C2CC(c3cccc(Nc4ccnc5cc(Cl)ccc45)c3)=NN2c2ccccc2)cc1 (configuration not stated) ... inactive
COc1ccc(/C(C#N)=C/c2nc3c(N4CCOCC4)nc(Cl)nc3n2C)cc1OC ... active
COc1cccc(-n2cnc3c(N/N=C/c4ccncc4)ncnc32)c1 ... inactive
NS(=O)(=O)OC[C@H]1O[C@@H](n2cnc3c(N[C@H]4CCc5ccccc54)ncnc32)[C@H](O)[C@@H]1O ... active

Consider the record given below.
Name the outcome recorded for CC(=O)c1c[nH]c2ccc(-c3ccnc(Nc4ccc(NC(=O)c5cccc(F)c5)c(CN5CCOCC5)c4)n3)cc12 in the assay.
active

---

System: TK-10 renal
Test: NCI tumour cell line growth inhibition, 48 h
PROPERTY_MEASURED: TGI

COc1c(Cl)ccc(Cl)c1-c1nnc(-c2c(Cl)c(Cl)c(Cl)c(Cl)c2-c2nc3ccc(C(=O)c4ccccc4)cc3[nH]2)o1 ... > 100 µM

Identify measured TGI corresponding to O=C1C=Cc2cc3ccccc3c3cccc1c23
42.3 µM

Identify measured TGI corresponding to N#CC1=C(N)Oc2c(sc3c(F)cccc23)C1c1ccc(Cl)cc1 (stereo not given)
24.3 µM

Identify measured TGI corresponding to Cc1cc(C)c2nc(Nc3nc(C)c(C)c(=O)[nH]3)nc(C)c2c1
17.9 µM

Identify measured TGI corresponding to Cc1cc2nc(N)n[n+]([O-])c2cc1C
> 100 µM

Identify measured TGI corresponding to C(=C/c1ccc2nc(-c3ccc(/C=C/C=N/NC4=NCCCN4)cc3)cn2c1)/C=N/NC1=NCCCN1
> 100 µM

Identify measured TGI corresponding to COc1ccc(-c2cc(-c3ccco3)c(C#N)c(=O)n2C2OC(OC(=O)c3ccccc3)C(OC(=O)c3ccccc3)C2OC(=O)c2ccccc2)cc1 (stereo not given)
54.7 µM

Identify measured TGI corresponding to Nc1c(Cl)ncnc1NCC1(CO)CCC1
> 100 µM

Identify measured TGI corresponding to CC1=NN(C(=O)CC(=O)Nc2ccccc2)C(=O)C1N=Nc1ccc(S(N)(=O)=O)cc1 (stereo not given)
> 100 µM

Identify measured TGI corresponding to Cc1ccc(NC(=O)C(=O)C2C(=O)C3=C(CC2(C)C)NC2C=CC=CC2S3)c(C)c1 (stereo not given)
> 100 µM

Identify measured TGI corresponding to COc1cc(/C=C/C(=O)OC[C@]23O[C@H]2[C@@H](OC2OC(C)C(O)C(O)C2O)C2C=CO[C@@H](OC4OC(CO)C(O)C(O)C4O)C23)ccc1O (stereo not given in full)
> 100 µM

Identify measured TGI corresponding to CCCCCCCC(=O)SCC/C=C/[C@@H]1CC(=O)NCc2cccc(n2)CN(Cc2ccc(Cl)cc2)CC(=O)N[C@@H](C(C)C)C(=O)O1
23.6 µM

---

Property: TGI; scope: individual molecules
Test system: EKVX NSCLC
Assay: NCI tumour cell line growth inhibition, 48 h

Some molecules with known TGI results, for comparison:
NC(=O)c1ccc(N)nc1 ... > 400 µM
NC(=O)c1ncn(C2CCC(CP(=O)(O)O)C2)c1N (stereo not drawn) ... > 100 µM
N#CC1=C(N)NC(=S)NC1c1ccc(-c2ccc(-c3nc4ccccc4s3)cc2)o1 (stereo not drawn) ... > 50 µM

Identify measured TGI corresponding to O=c1[nH]nc(Nc2ccccc2)c2nnn(Cc3ccccc3)c12
> 100 µM

Identify measured TGI corresponding to O=C(O)/C=C/C(=O)Nc1cccc2c1-c1ccccc1C2=O
> 100 µM

Identify measured TGI corresponding to O=C1N2CCN=C2c2ccccc2C1(O)c1ccccc1 (stereo not drawn)
> 100 µM

Identify measured TGI corresponding to COc1cc(C(C)(C)C)c(OC(=O)/C=C/C(=O)O/C=C/[N+](=O)[O-])c(C(C)(C)C)c1
> 100 µM

Identify measured TGI corresponding to COc1ccc(-c2ccc(/C=N/n3cnn(CN4CCN(C)CC4)c3=S)o2)c([N+](=O)[O-])c1
> 100 µM

---

Tested on: MOLT-4 leukemia
Test: NCI tumour cell line growth inhibition, 48 h
Where a SMILES comes first, the peptide text is derived from it. [ ]: non-standard residue; d: D form. The star is where a group is joined. ξ: configuration not given here. 4Abz = Nc1ccc(C(=O)O)cc1; ξL = CC(C)CC(N)C(=O)O; NHOH = ON*
PROPERTY_MEASURED: TGI

Some molecules with known TGI results, for comparison:
COc1ccccc1NC(=O)CC(=O)NNCC(=O)Nc1nc(-c2ccccc2)cs1 ... > 100 µM
COC(=O)C1=C(SC)SC2(C(=O)OC)C3C=C(C)C4C(N13)C42C(=O)OC (stereo not given) ... > 100 µM
CC(C)=CCNc1ncnc2c1ncn2C1OC(COP(=O)(O)O)C(O)C1O (stereo not given) ... > 48.5 µM

Using MOLT-4 leukemia as the test system, report measured TGI of O=C(Nc1ccc(Cl)cc1Cl)c1c/c(=N\O)c2ccc(O)cc2o1 .
> 100 µM

Using MOLT-4 leukemia as the test system, report measured TGI of C(=C/c1ccc2nc(-c3ccc(/C=C/C=N/NC4=NCCCN4)cc3)cn2c1)/C=N/NC1=NCCCN1 .
> 100 µM

Using MOLT-4 leukemia as the test system, report measured TGI of Cn1c(=O)c2[nH]c(Nc3ccccc3)nc2n(C)c1=O .
> 10 µM

Using MOLT-4 leukemia as the test system, report measured TGI of CC(C)CC(NC(=O)[C@@H]1CCCN1C(=O)CNC(=O)c1ccc(N)cc1)C(=O)N[C@H](C)C(=O)NO (stereo not given in full) (H-[4Abz]GP[ξL][dA]-{NHOH}) .
> 100 µM

Using MOLT-4 leukemia as the test system, report measured TGI of Brc1ccc2c(c1)[C@H]1CCc3c([nH]c4ccccc34)[C@H]1N2 .
16.8 µM

---

Test system: HOP-92 NSCLC
Assay: NCI tumour cell line growth inhibition, 48 h
Property: TGI; scope: individual compounds

O=C(O)c1cc(/C=C/c2ccc(O)c(O)c2)ccc1O ... > 100 µM
O=C1OS2(OC(=O)c3cccc4cccc2c34)c2ccccc21 (stereo not drawn) ... > 100 µM

Next up:
Identify measured TGI corresponding to COc1ccc2c(c1)Cc1cc(N=[N+]([O-])c3ccc4c(c3)Cc3cc(OC)ccc3-4)ccc1-2
> 100 µM
